Quick reference for pEC50 among some compounds
- assayed_system: human TREM2 (Homo sapiens, UniProt Q9NZC2)
- Construct: expressed in transfected cells; host or cells: HEK293T-hTREM2 cells (HEK cell line expressing human TREM2 and DAP12)
- Sequence (Q9NZC2 19-230): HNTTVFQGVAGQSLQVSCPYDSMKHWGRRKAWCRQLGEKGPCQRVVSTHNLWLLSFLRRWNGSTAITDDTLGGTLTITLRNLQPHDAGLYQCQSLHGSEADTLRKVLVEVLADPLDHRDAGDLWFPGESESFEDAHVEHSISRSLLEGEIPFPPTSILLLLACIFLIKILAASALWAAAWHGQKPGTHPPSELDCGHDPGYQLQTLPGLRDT
- Sequence (O43914 22-113 partner): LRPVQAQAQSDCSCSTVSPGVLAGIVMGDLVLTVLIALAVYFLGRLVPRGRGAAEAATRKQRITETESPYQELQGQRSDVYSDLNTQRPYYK
- test_details: TREM2 agonist potency by cellular phosphorylation of Syk (AlphaLisa) in HEK293T-hTREM2 cells expressing human TREM2 and DAP12
- Format: cell-based
- reported_conditions: HEK293 cells expressing hTREM2 and DAP12; 45 minutes at room temperature; Syk phosphorylation, AlphaLisa; read-out: hTREM2 EC50
pEC50: −log10 of the molar value.

compound	reported_result
Cc1nc2nc([C@H]3CCO[C@@H](c4cnn(C5CC5)c4)C3)nc(C34CC(C(F)(F)F)(C3)C4)c2cc1-c1cnn(C)c1	> 7.00

Query: pEC50; subject: Cc1nc2nc([C@H]3CCO[C@@H](c4cnn(C5CC5)c4)C3)nc(C34CC(C#N)(C3)C4)c2nc1C 6.30 to 7.00

What do you have for CC1Cc2c(nc([C@H]3CCO[C@@H](c4cnn(C5CC5)c4)C3)nc2-c2ccc(C(F)(F)F)cc2F)C(=O)N1C (stereo partly drawn) ? < 6.30
